molecular target: Protein-tyrosine kinase 6 (Homo sapiens); settings: at 1 µM
Description: GSK_PKIS: BRK mean inhibition at 1 uM [Nanosyn]
Assay Metric: inhibition (%)
One number for each entry, in %.

Known results for compounds:
NS(=O)(=O)c1ccc(Nc2ncc(-c3ccccc3)o2)cc1 : 4.41
CCN(CC)S(=O)(=O)c1ccc(OC)c(Nc2ncc(-c3ccccc3)o2)c1 : 3.3
CN(C)CCOc1ccc(-c2nc(-c3ccncc3)c(-c3ccc4c(c3)CC/C4=N\O)[nH]2)cc1 : 12.4
Nc1ncc(-c2cccc(S(N)(=O)=O)c2)c2scc(-c3ccc(F)c(Cl)c3)c12 : 47.5
COc1cccc(-c2c[nH]c3c(N/N=C/c4ccncc4)ncnc23)c1 : 4.81

Could I get inhibition for every one of these entries?
1. Fc1ccc(-c2cc(-c3c[nH]nc3-c3ccccn3)ccn2)cc1
2. Cc1ccc2c(-c3ccnc(Nc4ccccc4)n3)c(-c3ccc(F)cc3)nn2n1
3. CN1CCC(n2cnc(-c3ccc(F)cc3)c2-c2ccnc(Nc3ccccc3)n2)CC1
4. [O-][S+]1CCN(Cc2ccc(-c3ccc4ncnc(Nc5ccc(OCc6cccc(F)c6)c(Cl)c5)c4c3)o2)CC1
5. CCn1c(-c2nonc2N)nc2c(C#CC(C)(C)O)nc(OC[C@H](N)c3ccccc3)cc21
6. COc1ccc2c(-c3ccnc(Nc4cccc(OC(F)(F)F)c4)n3)cnn2n1

Result:
1: 7.81; 2: 63.4; 3: 13.2; 4: 7.3; 5: 2.72; 6: 7.21
